Provenance of the data: ChEMBL document CHEMBL4673264

# MEASUREMENT_TARGET: Transient receptor potential cation channel subfamily A member 1 (Homo sapiens)
# Sequence (O75762 whole entry): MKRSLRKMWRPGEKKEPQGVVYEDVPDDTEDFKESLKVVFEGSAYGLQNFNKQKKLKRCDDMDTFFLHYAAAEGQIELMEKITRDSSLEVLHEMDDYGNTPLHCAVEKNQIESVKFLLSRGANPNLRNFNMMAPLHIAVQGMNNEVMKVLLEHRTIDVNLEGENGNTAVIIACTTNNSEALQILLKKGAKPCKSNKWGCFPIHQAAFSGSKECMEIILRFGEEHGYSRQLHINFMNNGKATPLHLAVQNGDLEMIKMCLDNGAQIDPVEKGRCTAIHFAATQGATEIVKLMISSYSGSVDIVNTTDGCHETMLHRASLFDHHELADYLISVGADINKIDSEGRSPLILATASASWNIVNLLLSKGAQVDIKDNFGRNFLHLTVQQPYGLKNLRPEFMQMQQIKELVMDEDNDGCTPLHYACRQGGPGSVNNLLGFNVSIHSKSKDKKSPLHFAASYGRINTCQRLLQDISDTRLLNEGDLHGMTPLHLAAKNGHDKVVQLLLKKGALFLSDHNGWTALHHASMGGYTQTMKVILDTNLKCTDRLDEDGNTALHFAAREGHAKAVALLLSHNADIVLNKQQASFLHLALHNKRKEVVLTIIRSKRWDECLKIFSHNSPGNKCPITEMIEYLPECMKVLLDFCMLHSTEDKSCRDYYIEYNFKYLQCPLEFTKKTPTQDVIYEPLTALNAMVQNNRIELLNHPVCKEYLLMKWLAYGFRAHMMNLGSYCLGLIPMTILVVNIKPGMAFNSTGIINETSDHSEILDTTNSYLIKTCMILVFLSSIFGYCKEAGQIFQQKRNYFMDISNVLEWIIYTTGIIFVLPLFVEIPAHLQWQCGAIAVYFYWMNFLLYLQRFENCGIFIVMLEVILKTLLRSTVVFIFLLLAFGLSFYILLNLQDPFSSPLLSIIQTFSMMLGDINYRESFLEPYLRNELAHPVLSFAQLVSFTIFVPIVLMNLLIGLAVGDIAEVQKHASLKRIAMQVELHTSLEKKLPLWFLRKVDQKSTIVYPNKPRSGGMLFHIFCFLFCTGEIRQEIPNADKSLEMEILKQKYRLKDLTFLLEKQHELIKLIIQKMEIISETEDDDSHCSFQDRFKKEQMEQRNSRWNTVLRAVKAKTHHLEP
# MEASUREMENT_DESCRIPTION: Agonist activity at TRPA1 (unknown origin) by calcium imaging assay
MEASURED_ENDPOINT: EC50 (µM)
Entry rule: numbers only, all in µM.

Here are 3 molecules together with their reported answers.
Cc1cccc(O)c1O 2.83
Cc1cccc(O)c1C 86
C=CCc1ccc(O)c(OC)c1 116

With Transient receptor potential cation channel subfamily A member 1 (Homo sapiens) as the test system, provide measured EC50 for this molecule: `c1ccc2[nH]ccc2c1`
75.2

With Transient receptor potential cation channel subfamily A member 1 (Homo sapiens) as the test system, provide measured EC50 for this molecule: `C=Cc1ccc(O)c(OC)c1`
82.8

With Transient receptor potential cation channel subfamily A member 1 (Homo sapiens) as the test system, provide measured EC50 for this molecule: `Oc1ccccc1Cl`
501

With Transient receptor potential cation channel subfamily A member 1 (Homo sapiens) as the test system, provide measured EC50 for this molecule: `CCc1ccc(O)c(O)c1`
8.69

With Transient receptor potential cation channel subfamily A member 1 (Homo sapiens) as the test system, provide measured EC50 for this molecule: `Cc1ccc(O)c(O)c1`
11.7

With Transient receptor potential cation channel subfamily A member 1 (Homo sapiens) as the test system, provide measured EC50 for this molecule: `C/C=C/c1ccc(O)c(OC)c1`
149

With Transient receptor potential cation channel subfamily A member 1 (Homo sapiens) as the test system, provide measured EC50 for this molecule: `CCc1ccc(O)c(OC)c1`
101
